Experiment: Plasma terminal half-life of pergolide administered transdermally
Assay type: in vivo
Conditions: human, topical or ocular
observation.type: half-life

Just so you know, measured half-life for CCCN1CC(CSC)C[C@@H]2c3cccc4[nH]cc(c34)C[C@H]21 (stereo partly shown) [pergolide, 8-[(methylthio)methyl]-6-propylergoline] came out at 5 to 10 h

Cited source: patent US6572879B1
